Measured CRF2R EC50 of individual entries
# Experimental system: T1, CRF2R
# T1 sequence (Q13324 whole entry, species assumed, looked up): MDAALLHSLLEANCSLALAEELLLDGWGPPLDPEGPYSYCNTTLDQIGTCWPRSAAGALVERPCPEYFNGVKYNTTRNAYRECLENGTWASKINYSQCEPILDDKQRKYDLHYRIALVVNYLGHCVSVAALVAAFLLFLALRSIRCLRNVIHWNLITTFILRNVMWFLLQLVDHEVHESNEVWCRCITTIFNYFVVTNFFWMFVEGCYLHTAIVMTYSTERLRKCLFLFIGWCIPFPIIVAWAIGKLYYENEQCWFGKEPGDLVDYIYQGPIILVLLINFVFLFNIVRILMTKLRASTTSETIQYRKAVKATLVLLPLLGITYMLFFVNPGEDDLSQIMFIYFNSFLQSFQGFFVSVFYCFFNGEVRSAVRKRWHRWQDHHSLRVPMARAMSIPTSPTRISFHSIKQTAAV
# Experiment: cell-based or functional assay
Ends that are not written are not given here.
Give just the number in nM; leave the unit off.

• ZGPPISIDLPYWLLRKMIEIEKQEKEKQQAANNALLLDTI (C-terminal amide) [SEQ ID NO 310] = 8.7

Given the binder ZGPPISIDLPLQLLRKVIEIEKQEKEKQQATTNARILARV (C-terminal amide) [SEQ ID NO 320] , what is its reported CRF2R EC50?
19.1

Need CRF2R EC50 of ZGPPISIDLPAALLRKMIEIEKQEKEKQQAANNRLLLDTI (C-terminal amide) [SEQ ID NO 303] , thanks.
27.2

Returns the measured CRF2R EC50 for the input binder. Input: DNPSLSIDLPLILLRTLLELARTQSQRERAEQNARIFARV-NH2 [SEQ ID NO 330]
6

GET /values?readout=CRF2R EC50&item= ZGPPISIDVPIGLLRKMIEIEKQEKEKQQAANNRLLLDTI (not fully specified; C-terminal amide) [SEQ ID NO 254]
100

What value of CRF2R EC50 has been reported for the following binder? ZGPPISIDLPFQLLRKVIEIEKQEKEKQQAANNARLLARI (not fully specified; C-terminal amide) [SEQ ID NO 279]
13.1

Data origin: patent US20030148958A1
